The reported measurements were obtained from patent US20190224195A1.

experiment: Solubility test in various oils; format: physicochemical; conditions: oil or lipid, thermodynamic from solid; in Polyoxyl 6 apricot kernel oil; room temperature, 24 hours of stirring; read-out: Solubility of Dutasteride
measured_endpoint: solubility at 24 h (µg/mL)
Just the number in µg/mL, nothing appended.

Any idea what solubility at 24 h was measured for C[C@]12C=CC(=O)N[C@@H]1CC[C@@H]1[C@@H]2CC[C@]2(C)[C@@H](C(=O)Nc3cc(C(F)(F)F)ccc3C(F)(F)F)CC[C@@H]12 [Dutasteride] ?
2550

---

assay: Solubility test according to surfactant; assay type: physicochemical; conditions: organic solvent or mixture, thermodynamic from solid; in PEG 35 castor oil; read-out: Dutasteride Solubility
measured_endpoint: solubility at 24 h
Your answer should be a number followed by the unit of measure.

Any idea what solubility at 24 h was measured for C[C@]12C=CC(=O)N[C@@H]1CC[C@@H]1[C@@H]2CC[C@]2(C)[C@@H](C(=O)Nc3cc(C(F)(F)F)ccc3C(F)(F)F)CC[C@@H]12 [Dutasteride] ?
1990 µg/mL

---

test: Solubility test according to surfactant; format: physicochemical; settings: organic solvent or mixture, thermodynamic from solid; in Poloxamer 124; read-out: Tadalafil Solubility
measured_endpoint: solubility at 24 h
Your answer should be a number followed by the unit of measure.

Any idea what solubility at 24 h was measured for "CN1CC(=O)N2[C@H](c3ccc4c(c3)OCO4)c3[nH]c4ccccc4c3C[C@@H]2C1=O" ?
6.23 mg/mL

---

assay: Solubility test in various oils; assay type: physicochemical; conditions: oil or lipid, thermodynamic from solid; in Castor oil; room temperature, 24 hours of stirring; read-out: Solubility of Dutasteride
measured_endpoint: solubility at 24 h (µg/mL)
Just the number in µg/mL, nothing appended.

Any idea what solubility at 24 h was measured for C[C@]12C=CC(=O)N[C@@H]1CC[C@@H]1[C@@H]2CC[C@]2(C)[C@@H](C(=O)Nc3cc(C(F)(F)F)ccc3C(F)(F)F)CC[C@@H]12 [Dutasteride] ?
1500

---

assay: Solubility test in various oils; type: physicochemical; conditions: oil or lipid, thermodynamic from solid; in Propylene glycol monocaprylate; room temperature, 24 hours of stirring; read-out: Solubility of Dutasteride
measured_endpoint: solubility at 24 h (mg/mL)
Just the number in mg/mL, nothing appended.

Any idea what solubility at 24 h was measured for C[C@]12C=CC(=O)N[C@@H]1CC[C@@H]1[C@@H]2CC[C@]2(C)[C@@H](C(=O)Nc3cc(C(F)(F)F)ccc3C(F)(F)F)CC[C@@H]12 [Dutasteride] ?
26.3

---

assay: Solubility test according to surfactant; format: physicochemical; conditions: organic solvent or mixture, thermodynamic from solid; in Polysorbate 60; read-out: Tadalafil Solubility
measured_endpoint: solubility at 24 h (mg/mL)
Just the number in mg/mL, nothing appended.

Any idea what solubility at 24 h was measured for "CN1CC(=O)N2[C@H](c3ccc4c(c3)OCO4)c3[nH]c4ccccc4c3C[C@@H]2C1=O" ?
10.7

---

experiment: Solubility test according to surfactant; type: physicochemical; conditions: organic solvent or mixture, thermodynamic from solid; in PEG 8 caprylic/capric glyceride; read-out: Tadalafil Solubility
measured_endpoint: solubility at 24 h
Your answer should be a number followed by the unit of measure.

Any idea what solubility at 24 h was measured for "CN1CC(=O)N2[C@H](c3ccc4c(c3)OCO4)c3[nH]c4ccccc4c3C[C@@H]2C1=O" ?
8810 µg/mL
